Recorded values, source patent US20180085356A1.

# ASSAY_REMARKS: Tacrolimus blood levels in healthy human volunteers given capsule
# Assay type: in vivo
# REPORTED_CONDITIONS: human, blood; 0.3 mg capsule daily, oral, three days; read-out: average area under the curve AUC 0_t
ENDPOINT_NAME: AUC

Which AUC reading was recorded for the compound C=CC[C@@H]1/C=C(\C)C[C@H](C)C[C@H](OC)[C@H]2O[C@@](O)(C(=O)C(=O)N3CCCC[C@H]3C(=O)O[C@H](/C(C)=C/[C@@H]3CC[C@@H](O)[C@H](OC)C3)[C@H](C)[C@@H](O)CC1=O)[C@H](C)C[C@@H]2OC ?
~23.5 ng·h/mL

----------
# ASSAY_REMARKS: Tacrolimus blood levels in healthy human volunteers given capsule
# Format: in vivo
# REPORTED_CONDITIONS: human, blood, oral; two capsules, single dose of 0.6 mg; read-out: expected trough level
# Description: A hard gelatine capsule was filled with the following composition: One capsule as above containing 0.3 mg tacrolimus was administered daily to healthy human volunteers for three successive days. […] Similarly, no change in TNF-α levels occurred as a result of administering 0.6 mg daily of tacrolimus to healthy volunteers. The average trough level of tacrolimus (level after 24 hours of administration of each dose) observed was approximately 220 pg/ml.
ENDPOINT_NAME: concentration at 24 h

Which concentration at 24 h reading was recorded for the compound C=CC[C@@H]1/C=C(\C)C[C@H](C)C[C@H](OC)[C@H]2O[C@@](O)(C(=O)C(=O)N3CCCC[C@H]3C(=O)O[C@H](/C(C)=C/[C@@H]3CC[C@@H](O)[C@H](OC)C3)[C@H](C)[C@@H](O)CC1=O)[C@H](C)C[C@@H]2OC ?
~0.44 ng/mL
